Value source: the supplement of paper PMC9732359

- experiment_summary: protein stability index of a GFP-peptide fusion (yeast GPS) (PSI 1-4); higher = more stable; sorted into four equal gates, so the index is relative within each strain
- measurement_parameters: pdr5∆
# reported protein stability index; entries follow
Note: the reply should be a number with no unit written.

The cases that follow already have their protein stability index on record.
VDEPMTSAVELGAIEQI [YJL039C/NUP192]; 3.66
LQQELATTQDQVASIIE [NUT2]; 2.95
TTDKNTTDDKSMDTKKK [BRN1]; 3.51
RESRIVSTEGNVPQTLA [RPL21A]; 2.25
FRNNKNDNYSSDMENDN [REC8]; 3.15

stdin: Need protein stability index of SEILIISSLMFDEEFDP [IRR1] , thanks.
stdout: 2.63

stdin: Need protein stability index of IAEGQKKFATVPTGGAS [RPP2B] , thanks.
stdout: 2.89
